molecular target: Polyadenylate-binding protein 1 (Homo sapiens); assay: MLLE domain peptide-binding blockers, IC50 – biochemical, fluorescence polarization, FITC-PAM2 peptide, dose response (AID 602259); type: functional; conditions: read-out: IC50_Mean
Sequence (P11940 whole entry, the tested form may be a part): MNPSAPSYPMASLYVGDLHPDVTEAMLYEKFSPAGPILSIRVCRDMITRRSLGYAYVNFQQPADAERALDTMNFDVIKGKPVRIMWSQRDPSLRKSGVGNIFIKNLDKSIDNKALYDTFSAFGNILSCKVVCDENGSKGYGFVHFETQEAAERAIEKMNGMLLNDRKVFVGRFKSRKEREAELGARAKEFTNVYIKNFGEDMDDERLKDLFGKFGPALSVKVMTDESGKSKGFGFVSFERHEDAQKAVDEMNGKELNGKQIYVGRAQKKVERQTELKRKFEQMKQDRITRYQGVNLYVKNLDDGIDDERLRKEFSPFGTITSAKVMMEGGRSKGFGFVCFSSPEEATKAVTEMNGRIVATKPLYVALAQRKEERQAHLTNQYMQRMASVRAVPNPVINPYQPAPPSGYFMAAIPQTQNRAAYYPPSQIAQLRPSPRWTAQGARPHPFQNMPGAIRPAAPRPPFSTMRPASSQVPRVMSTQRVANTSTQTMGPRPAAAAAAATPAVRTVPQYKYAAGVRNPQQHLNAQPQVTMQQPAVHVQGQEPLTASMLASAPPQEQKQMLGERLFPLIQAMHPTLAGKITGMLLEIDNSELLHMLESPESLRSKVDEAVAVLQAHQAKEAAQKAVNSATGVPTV
Calls of active or inactive are those of the source. Cut-off read from the data, not from the text of the source: active = IC50 of 20 µM or less and inactive = more.
Measured IC50, listed per entry for reference.
REPORTED ENDPOINT: IC50

• CCCNC(=O)NCCc1c(C)[nH]c2ccccc12 = 45.9 µM (inactive)
• COc1cccc(/C=N/NC(=O)c2ccncc2)c1OC(=O)c1ccc(Br)cc1 = 25.1 µM (inactive)
• O=C(CCN1CCOCC1)NNC(=S)NC(=O)c1ccccc1 = > 66 µM (inactive)
• N=c1n(CCN2CCCC2)c2ccccc2n1CC(O)c1ccco1 (stereo not given) = > 66 µM (inactive)
• CCCc1nc2c(C)cc(Br)cn2c1Cc1ccsc1 = 41.9 µM (inactive)
